- protocol notes: Cytotoxicity against rat NRK cells assessed as cell growth inhibition incubated for 48 hrs by MTT assay
- Assay type: toxicity, cell-based
measure name: IC50 at 48 h (µM)
Give the value, in units of µM, as a plain number.

| smiles str | IC50 at 48 h (µM) |
| --- | --- |
| Cc1ccc(C/N=C2\NC(=O)/C(=C3\CCNC(=O)c4[nH]c5ccccc5c43)S2)cc1 | 53.2 |

Task: Name the recorded IC50 at 48 h for Cc1ccc(C/N=C2\NC(=O)/C(=C3\CCNC(=O)c4[nH]ccc43)S2)cc1 .
Output: 41.9

* * *

- Test system: HT-29
- protocol notes: Cytotoxicity against human HT-29 cells assessed as cell growth inhibition incubated for 48 hrs by MTT assay
- Format: functional, cell-based
- settings: HT-29, 48 h
measure name: pIC50
Please note pIC50 is a logarithmic value: minus log10 of concentration in mol/L. Answer with that number alone.

Solved cases below.
| smiles str | measure name | value reported |
| --- | --- | --- |
| CC(C)(C)c1ccc(C/N=C2\NC(=O)/C(=C3\CCNC(=O)c4[nH]c5ccccc5c43)S2)cc1 | pIC50 | 4.87 |
| CC(C)(C)c1ccc(C/N=C2\NC(=O)/C(=C3\CCNC(=O)c4[nH]ccc43)S2)cc1 | pIC50 | 4.36 |
| COc1ccc(C/N=C2\NC(=O)/C(=C3\CCNC(=O)c4[nH]c5ccccc5c43)S2)cc1 | pIC50 | 4.91 |
| O=C1N/C(=N\CCc2ccccc2)S/C1=C1/CCNC(=O)c2[nH]ccc21 | pIC50 | 4.60 |
| O=c1[nH]cc(F)c(=O)[nH]1 | pIC50 | 4.62 |

Task: Record request: pIC50 value, item O=C1N/C(=N\Cc2cccc(Cl)c2)S/C1=C1/CCNC(=O)c2[nH]ccc21
Output: 4.45

Task: What does the data say about its pIC50? Entry: O=C1N/C(=N\Cc2ccc3c(c2)OCO3)S/C1=C1/CCNC(=O)c2[nH]c3ccccc3c21
Output: 4.44

Task: Need pIC50 of COc1ccc(C/N=C2\NC(=O)/C(=C3\CCNC(=O)c4[nH]ccc43)S2)cc1 , thanks.
Output: 4.94

* * *

- Test system: HT-29
- protocol notes: Cytotoxicity against human HT-29 cells assessed as cell growth inhibition incubated for 48 hrs by MTT assay
- Type: functional, cell-based
- settings: HT-29, 48 h
measure name: pIC50
pIC50 (log units): -log10 of the concentration in mol/L.

// known answers, use as guide
| smiles str | pIC50 |
| --- | --- |
| COc1ccc(CC/N=C2\NC(=O)/C(=C3\CCNC(=O)c4[nH]ccc43)S2)cc1 | 5.09 |
| O=C1N/C(=N\Cc2ccc(Cl)cc2)S/C1=C1/CCNC(=O)c2[nH]c3ccccc3c21 | 4.40 |

Proceed to the following item.
Task: Given the entry O=C1N/C(=N\Cc2ccc(F)cc2)S/C1=C1/CCNC(=O)c2[nH]ccc21 , report its measured pIC50.
Output: 4.59

* * *

- System: SK-MEL-28
- protocol notes: Cytotoxicity against human SK-MEL-28 cells assessed as cell growth inhibition incubated for 48 hrs by MTT assay
- Type: functional, cell-based
- settings: SK-MEL-28, 48 h
measure name: IC50 (µM)
Lab book: enter the figure in µM, no units written.

Worked cases, answers included:
| smiles str | experimental target | IC50, µM |
| --- | --- | --- |
| CC(C)(C)c1ccc(C/N=C2\NC(=O)/C(=C3\CCNC(=O)c4[nH]ccc43)S2)cc1 | SK-MEL-28 | 23.5 |
| Cc1ccc(C/N=C2\NC(=O)/C(=C3\CCNC(=O)c4[nH]ccc43)S2)cc1 | SK-MEL-28 | 4.15 |
| O=C1N/C(=N\Cc2ccc3c(c2)OCO3)S/C1=C1/CCNC(=O)c2[nH]ccc21 | SK-MEL-28 | 11.2 |
| O=C1N/C(=N\Cc2ccccc2)S/C1=C1/CCNC(=O)c2[nH]ccc21 | SK-MEL-28 | 38.4 |

Task: Provide the documented IC50 with SK-MEL-28 as the system for Cc1ccc(C/N=C2\NC(=O)/C(=C3\CCNC(=O)c4[nH]c5ccccc5c43)S2)cc1
Output: 3.02

Task: Record lookup: for SK-MEL-28, what IC50 belongs to COc1ccc(C/N=C2\NC(=O)/C(=C3\CCNC(=O)c4[nH]ccc43)S2)cc1 ?
Output: 12.1

Task: Please provide the recorded IC50 for O=c1[nH]cc(F)c(=O)[nH]1 , tested on SK-MEL-28.
Output: 14.6

Task: Form field - read-out: IC50; system: SK-MEL-28; submitted item: COc1ccc(CC/N=C2\NC(=O)/C(=C3\CCNC(=O)c4[nH]c5ccccc5c43)S2)cc1
Output: 3.49

Task: Observed IC50 on SK-MEL-28 for COc1ccc(C/N=C2\NC(=O)/C(=C3\CCNC(=O)c4[nH]c5ccccc5c43)S2)cc1OC , please.
Output: 25.1

* * *

The entries below come with measured pIC50 values attached.
- Test system: A549
- protocol notes: Cytotoxicity against human A549 cells assessed as cell growth inhibition incubated for 48 hrs by MTT assay
- Assay type: functional, cell-based
- settings: A549, 48 h
API: returns pIC50 as number; meaning -log10 of concentration in mol/L.

| smiles str | pIC50 |
| --- | --- |
| O=C1N/C(=N\Cc2ccc3c(c2)OCO3)S/C1=C1/CCNC(=O)c2[nH]ccc21 | 4.70 |

Task: Request the reported pIC50 associated with O=C1N/C(=N\Cc2ccc(Cl)cc2)S/C1=C1/CCNC(=O)c2[nH]c3ccccc3c21
Output: 4.47

Task: Can you share its pIC50? I mean this compound: CC(C)(C)c1ccc(C/N=C2\NC(=O)/C(=C3\CCNC(=O)c4[nH]c5ccccc5c43)S2)cc1
Output: 4.71

Task: // pIC50 lookup, key: Cc1ccc(C/N=C2\NC(=O)/C(=C3\CCNC(=O)c4[nH]ccc43)S2)cc1
Output: 5.04

* * *

Attribute: IC50
- experimental target: DNA topoisomerase 1 (Homo sapiens, UniProt P11387)
- Sequence (P11387 whole entry): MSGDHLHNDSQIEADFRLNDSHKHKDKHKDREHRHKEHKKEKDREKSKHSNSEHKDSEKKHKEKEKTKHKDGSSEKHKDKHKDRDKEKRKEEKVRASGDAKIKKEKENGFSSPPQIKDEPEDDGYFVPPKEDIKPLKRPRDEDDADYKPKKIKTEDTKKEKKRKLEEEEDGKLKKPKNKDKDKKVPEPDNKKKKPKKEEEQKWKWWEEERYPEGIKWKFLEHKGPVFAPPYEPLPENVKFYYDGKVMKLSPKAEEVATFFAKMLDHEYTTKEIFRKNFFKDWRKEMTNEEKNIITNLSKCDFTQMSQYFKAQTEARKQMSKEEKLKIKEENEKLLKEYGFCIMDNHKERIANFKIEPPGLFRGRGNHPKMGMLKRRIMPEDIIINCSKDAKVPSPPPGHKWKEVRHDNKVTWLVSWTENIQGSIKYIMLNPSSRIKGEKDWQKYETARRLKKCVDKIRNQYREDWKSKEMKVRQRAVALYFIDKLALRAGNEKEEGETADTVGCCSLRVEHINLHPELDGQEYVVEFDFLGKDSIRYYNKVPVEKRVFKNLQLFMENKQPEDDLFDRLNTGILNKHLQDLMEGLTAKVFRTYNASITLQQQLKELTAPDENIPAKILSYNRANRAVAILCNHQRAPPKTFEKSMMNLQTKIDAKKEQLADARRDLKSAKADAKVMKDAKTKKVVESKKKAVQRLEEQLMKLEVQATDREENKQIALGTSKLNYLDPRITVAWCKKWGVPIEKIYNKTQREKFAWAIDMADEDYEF
Numbers only here, please. The scale is µM.

| smiles str | experimental target | measure name | readout units | value reported |
| --- | --- | --- | --- | --- |
| Cc1ccc(C/N=C2\NC(=O)/C(=C3\CCNC(=O)c4[nH]ccc43)S2)cc1 | DNA topoisomerase 1 (Homo sapiens, UniProt P11387) | IC50 | µM | 34 |

Field: next molecule
Task: I would be grateful if you could share the reported IC50 for Cc1ccc(C/N=C2\NC(=O)/C(=C3\CCNC(=O)c4[nH]c5ccccc5c43)S2)cc1 .
Output: 48

* * *

- Tested on: SK-MEL-28
- protocol notes: Cytotoxicity against human SK-MEL-28 cells assessed as cell growth inhibition incubated for 48 hrs by MTT assay
- Assay type: functional, cell-based
- settings: SK-MEL-28, 48 h
measure name: IC50 (µM)
Hi! Could you send only the number? It should be in µM, unit omitted.

Examples with answers:
| smiles str | experimental target | IC50 (µM) |
| --- | --- | --- |
| COc1ccc(CC/N=C2\NC(=O)/C(=C3\CCNC(=O)c4[nH]ccc43)S2)cc1 | SK-MEL-28 | 7.86 |
| O=C1N/C(=N\Cc2ccc(F)cc2)S/C1=C1/CCNC(=O)c2[nH]ccc21 | SK-MEL-28 | 11.2 |
| O=C1N/C(=N\Cc2cccc(Cl)c2)S/C1=C1/CCNC(=O)c2[nH]c3ccccc3c21 | SK-MEL-28 | 23.8 |
| CC(C)(C)c1ccc(C/N=C2\NC(=O)/C(=C3\CCNC(=O)c4[nH]c5ccccc5c43)S2)cc1 | SK-MEL-28 | 8.97 |
| O=C1N/C(=N\Cc2ccccc2)S/C1=C1/CCNC(=O)c2[nH]c3ccccc3c21 | SK-MEL-28 | 29.8 |

Next up:
Task: # input compound: O=C1N/C(=N\Cc2cccc(Cl)c2)S/C1=C1/CCNC(=O)c2[nH]ccc21 ; wanted: its IC50
Output: 34.6
